# assay.target: p38α (unphosphorylated) (UniProt Q16539 1-360)
# Sequence (Q16539 whole entry): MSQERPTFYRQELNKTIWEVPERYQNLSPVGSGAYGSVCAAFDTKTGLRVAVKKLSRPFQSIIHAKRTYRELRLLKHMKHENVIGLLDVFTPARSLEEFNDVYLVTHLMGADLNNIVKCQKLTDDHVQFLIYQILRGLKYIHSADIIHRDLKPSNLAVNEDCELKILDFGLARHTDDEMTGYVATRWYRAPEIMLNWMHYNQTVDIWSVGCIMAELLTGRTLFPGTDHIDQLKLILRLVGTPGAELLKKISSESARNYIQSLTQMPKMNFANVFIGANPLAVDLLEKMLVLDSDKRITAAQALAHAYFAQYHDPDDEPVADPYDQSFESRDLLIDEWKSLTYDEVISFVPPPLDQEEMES
# assay: ITC
List of Kd values.

Illustrative cases are given below, each with its answer.
## Input # input binder: PTPSL (residues 332–655) (domain or fragment, UniProt Q15256 332-655, looked up) GLQERRGSNVSLTLDMSSLGNIEPFVSIPTPREKVAMEYLQSASRILTRSQLRDVVASSHLLQSEFMEIPMNFVDPKEIDIPRHGTKNRYKTILPNPLSRVCLRPKNVTDSLSTYINANYIRGYSGKEKAFIATQGPMINTVDDFWQMVWQEDSPVIVMITKLKEKNEKCVLYWPEKRGIYGKVEVLVISVNECDNYTIRNLVLKQGSHTQHVKHYWYTSWPDHKTPDSAQPLLQLMLDVEEDRLASQGRGPVVVHCSAGIGRTGCFIATSIGCQQLKEEGVVDALSIVCQLRMDRGGMVQTSEQYEFVHHALCLYESRLSAET ; wanted: its Kd
## Output 0.382 µM

## Input # input binder: GLQERRGSNVSLTLDMSSLGNIEPFVSIPTPREKVAMEYLQS (peptide, UniProt Q15256 332-373, looked up) [PTPSL_(KIMKIS) (residues 332–373)] ; wanted: its Kd
## Output 1.53 µM

---
## Input # input binder: STEP_(F281A/I307A) (domain or fragment) GLQERRGSNVSLTLDMCTPGCNEEGFGYLMSPREESAREYLLSASRVLQAEELHEKALDPFLLQAEFAEIPMNFVDPKEYDIPGLVRKNRYKTALPNPHSRVCLTSPDPDDPLSSYINANYIRGYGGEEKVYIATQGPIVSTVADFWRMVWQEHTPIIVMITNIEEMNEKCTEYWPEEQVAYDGVEITVQKVIHTEDYRLRLISLKSGTEERGLKHYWFTSWPDQKTPDRAPPLLHLVREVEEAAQQEGPHCAPIIVHCSAGIGRTGCFIATSICCQQLRQEGVVDILKTTCQLRQDRGGMIQTCEQYQFVHHVMSLYEKQLSHQS ; wanted: its Kd
## Output 1.06 µM
